The measurements presented in this section are drawn from patent US7223759B2.

Test system: Escherichia coli (ATCC25922) or Staphylococcus aureus (ATCC25923)
protocol-summary: Antibacterial MIC, microdilution method in Mueller-Hinton medium
Assay type: cell-based
details: Escherichia coli, 18 h, read-out: Potency (MIC)
readout-label: MIC

{"smi": "N[C@@H]1C[C@H](N)CN(c2nc(Nc3ccc(C(=O)Nc4cccc(C(F)(F)F)c4)c(O)c3)nc(N3C[C@H](N)C[C@H](N)C3)n2)C1", "tested-system": "Escherichia coli (ATCC25922) or Staphylococcus aureus (ATCC25923)", "MIC": "< 16 µg/mL"}
{"smi": "NC[C@@H]1C[C@H](CN)CN(c2nc(Nc3ccc(C(=O)CC(=O)Nc4ccccc4Cl)cc3)nc(N3C[C@H](N)C[C@H](N)C3)n2)C1", "tested-system": "Escherichia coli (ATCC25922) or Staphylococcus aureus (ATCC25923)", "MIC": "< 64 µg/mL"}
{"smi": "CC(=O)c1ccc(Nc2nc(N3C[C@H](N)C[C@H](N)C3)nc(N3C[C@@H](N)C[C@H]3CO)n2)cc1", "tested-system": "Escherichia coli (ATCC25922) or Staphylococcus aureus (ATCC25923)", "MIC": "> 64 µg/mL"}
{"smi": "N[C@@H]1C[C@H](N)CN(c2nc(NNc3ccccc3)nc(N3C[C@H](N)C[C@H](N)C3)n2)C1", "tested-system": "Escherichia coli (ATCC25922) or Staphylococcus aureus (ATCC25923)", "MIC": "> 64 µg/mL"}
{"smi": "CCCC(=O)Nc1ccc(Nc2nc(N3C[C@H](N)C[C@H](N)C3)nc(N3C[C@H](N)C[C@H](N)C3)n2)cc1O", "tested-system": "Escherichia coli (ATCC25922) or Staphylococcus aureus (ATCC25923)", "MIC": "> 64 µg/mL"}
{"smi": "Cc1ccc(S(=O)(=O)N(Cc2ccccc2)c2ccc(Nc3nc(N4C[C@H](N)C[C@H](N)C4)nc(N4C[C@@H](N)C[C@H]4CN)n3)cc2O)cc1", "tested-system": "Escherichia coli (ATCC25922) or Staphylococcus aureus (ATCC25923)", "MIC": "< 64 µg/mL"}

Now look at this one.
Task: Fill in: MIC on Escherichia coli (ATCC25922) or Staphylococcus aureus (ATCC25923), entry N[C@@H]1C[C@H](N)CN(c2nc(Nc3ccc(C(=O)Nc4ccc(F)cc4)c(O)c3)nc(N3C[C@H](N)C[C@H](N)C3)n2)C1
Output: < 16 µg/mL
